- assayed system: Human leucocytic elastase (Homo sapiens)
- Sequence (P08246 30-247 limits assumed): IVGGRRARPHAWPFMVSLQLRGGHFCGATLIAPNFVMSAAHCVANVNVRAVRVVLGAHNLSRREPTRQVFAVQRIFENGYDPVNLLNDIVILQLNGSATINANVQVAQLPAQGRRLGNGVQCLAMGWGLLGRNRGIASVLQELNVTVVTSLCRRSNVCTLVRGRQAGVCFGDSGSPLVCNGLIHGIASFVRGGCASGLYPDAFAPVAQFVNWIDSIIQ
- experiment notes: Direct inhibition of elastin-cleaving activity of human leucocytic elastase (first series, elastase pre-incubated with compound)
- Type: biochemical
- settings: elastase 1 μg/ml incubated 10 min with compound; pH 8.4, 7 h at 37° C.
assay readout: pIC50
Schema: pIC50 number; meaning minus log10 of the concentration expressed in molar units.

// pIC50 lookup, key: CCCCCCCCCCCC(=O)N1C(=O)c2ccccc2S1(=O)=O [Example 1, 2-lauroylbenzisothiazolinone-1-dioxide]
4.12

----------
- assayed system: Human leucocytic elastase (Homo sapiens, UniProt P08246)
- experiment notes: Inhibition of human leucocytic elastase (succinyltrialanine p-nitroanilide substrate)
- Type: biochemical
- settings: elastase 1 μg/ml, pre-incubated 15 min; 1% acetone; 410 nm
- Experimental: The inhibition test was carried out by using succinyltrialanine p-nitroanilide as a synthetic substrate. Human leucocytic elastase, used at a concentration of 1 μg/ml, was first pre-incubated for 15 min with the compounds of the invention, used at a concentration of 0.5, 5, 10, 25 and 50 μg/ml. […] The degree of hydrolysis of the substrate was determined by measuring the amount of p-nitroaniline released, using a Philips PO 8700 spectrophotometer at 410 nm. […]
Recorded pIC50, one value per entry.
Interpret pIC50 as the negative base-10 log of the concentration measured in mol/L.

CCCCCCCCCC(=O)N1C(=O)c2ccccc2S1(=O)=O : 4.07
C=CCCCCCCCCC(=O)N1C(=O)c2ccccc2S1(=O)=O : 4.12
CCCCCCCCCCCCCCCCCC(=O)N1C(=O)c2ccccc2S1(=O)=O [Example 4, 2-stearoylbenzisothiazolinone-1-dioxide] : 5.33

Return reported pIC50; argument: `O=C(C=Cc1ccccc1)N1C(=O)c2ccccc2S1(=O)=O`
4.05

Recorded pIC50 for CCCCCCCCCCCCCC(=O)N1C(=O)c2ccccc2S1(=O)=O [Example 2, 2-myristoylbenzisothiazolinone-1-dioxide] , please?
5.04

Item under review: `O=C(CCc1ccccc1)N1C(=O)c2ccccc2S1(=O)=O` . Reported pIC50?
4.32

----------
- assayed system: Human leucocytic elastase (Homo sapiens, UniProt P08246)
- experiment notes: Inhibition of human leucocytic elastase (succinyltrialanine p-nitroanilide substrate)
- Type: biochemical
- settings: elastase 1 μg/ml, pre-incubated 15 min; 1% acetone; 410 nm
assay readout: pIC50
Interpret pIC50 as the negative base-10 log of the concentration measured in mol/L.

These solved cases illustrate the format of a correct answer.
COc1ccc(CCCC(=O)N2C(=O)c3ccccc3S2(=O)=O)cc1 : 4.44
CCCCCCCCCCCC(=O)N1C(=O)c2ccccc2S1(=O)=O [Example 1, 2-lauroylbenzisothiazolinone-1-dioxide] : 4.96
COc1ccc(C=CC(=O)N2C(=O)c3ccccc3S2(=O)=O)cc1OC : 5.30

Any idea what its pIC50 is? The molecule is `CCCCCCCCCCCCCCCC(=O)N1C(=O)c2ccccc2S1(=O)=O`
5.68

Measured values drawn from patent US5338747A for this set.
